B1: CPEB3 Ribozyme (parent)
chain: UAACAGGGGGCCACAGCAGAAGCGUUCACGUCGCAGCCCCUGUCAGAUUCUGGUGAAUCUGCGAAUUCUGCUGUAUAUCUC

Variants of: B1
Test: self-cleavage, relative activity (ratio to wild type); higher = more cleavage; in vitro, sequencing
recorded_metric: self-cleavage

mutation_string="A3C A5G" recorded_metric=self-cleavage observed=0.62
mutation_string="A15C A28U" recorded_metric=self-cleavage observed=0.8
mutation_string="U1A A75G" recorded_metric=self-cleavage observed=0.9
mutation_string="A56G U60G" recorded_metric=self-cleavage observed=0.34
mutation_string="A21C U43A" recorded_metric=self-cleavage observed=0.35
mutation_string="G16C U67C" recorded_metric=self-cleavage observed=0.42
mutation_string="A20G A57C" recorded_metric=self-cleavage observed=0.26
mutation_string="A47G A65G" recorded_metric=self-cleavage observed=0.4
mutation_string="G7A C29A" recorded_metric=self-cleavage observed=0.36
mutation_string="U26C A56C" recorded_metric=self-cleavage observed=0.31
mutation_string="U26C G42U" recorded_metric=self-cleavage observed=0.25
mutation_string="C34U U66C" recorded_metric=self-cleavage observed=0.35
mutation_string="G63A U76A" recorded_metric=self-cleavage observed=0.82
mutation_string="U26A G52C" recorded_metric=self-cleavage observed=1
mutation_string="U48A U54C" recorded_metric=self-cleavage observed=0.39
mutation_string="U54C C81G" recorded_metric=self-cleavage observed=1.3
mutation_string="C32A C38G" recorded_metric=self-cleavage observed=0.18
mutation_string="G10C U49A" recorded_metric=self-cleavage observed=0.2
mutation_string="A28U U72C" recorded_metric=self-cleavage observed=0.88
mutation_string="C27A U54C" recorded_metric=self-cleavage observed=0.56
mutation_string="G46A A77U" recorded_metric=self-cleavage observed=0.48
mutation_string="A5C G36A" recorded_metric=self-cleavage observed=0.31
mutation_string="U1C U80C" recorded_metric=self-cleavage observed=1
mutation_string="C32U U80C" recorded_metric=self-cleavage observed=0.44
mutation_string="U43G C81U" recorded_metric=self-cleavage observed=0.08
mutation_string="A28C A77G" recorded_metric=self-cleavage observed=0.51
mutation_string="U60A U67G" recorded_metric=self-cleavage observed=0.79
mutation_string="A47C G63A" recorded_metric=self-cleavage observed=0.56
mutation_string="U31C G42U" recorded_metric=self-cleavage observed=0.13
mutation_string="G9A U69G" recorded_metric=self-cleavage observed=0.2
mutation_string="A21U G42C" recorded_metric=self-cleavage observed=0.29
mutation_string="A65U U74A" recorded_metric=self-cleavage observed=0.44
mutation_string="A56G A65U" recorded_metric=self-cleavage observed=0.25
mutation_string="A13U G42A" recorded_metric=self-cleavage observed=0.19
mutation_string="A13U U49A" recorded_metric=self-cleavage observed=0.71
mutation_string="U41C U67C" recorded_metric=self-cleavage observed=0.33
mutation_string="G63C U72A" recorded_metric=self-cleavage observed=0.4
mutation_string="A47G A57G" recorded_metric=self-cleavage observed=0.51
mutation_string="C23G U49C" recorded_metric=self-cleavage observed=0.16
mutation_string="C17G U25A" recorded_metric=self-cleavage observed=0.09
mutation_string="G8A G55A" recorded_metric=self-cleavage observed=0.06
mutation_string="G55U U58A" recorded_metric=self-cleavage observed=0.25
mutation_string="U51G G70A" recorded_metric=self-cleavage observed=0.69
mutation_string="A21G C39U" recorded_metric=self-cleavage observed=0.3
mutation_string="C17U A35G" recorded_metric=self-cleavage observed=1.26
mutation_string="U76C A77G" recorded_metric=self-cleavage observed=1.07
mutation_string="C39A A65G" recorded_metric=self-cleavage observed=0.11
mutation_string="C34G A45C" recorded_metric=self-cleavage observed=0.19
mutation_string="G7U A20U" recorded_metric=self-cleavage observed=0.11
mutation_string="U78A U80C" recorded_metric=self-cleavage observed=1.07
mutation_string="G22C A64G" recorded_metric=self-cleavage observed=0.24
mutation_string="A13C U58C" recorded_metric=self-cleavage observed=0.45
mutation_string="A5G U41A" recorded_metric=self-cleavage observed=0.32
mutation_string="G46C A56U" recorded_metric=self-cleavage observed=0.13
mutation_string="G9U G36A" recorded_metric=self-cleavage observed=0.15
mutation_string="C34G U58C" recorded_metric=self-cleavage observed=0.15
mutation_string="U26G U54A" recorded_metric=self-cleavage observed=0.19
mutation_string="U31C U43A" recorded_metric=self-cleavage observed=1.03
mutation_string="C50U U54G" recorded_metric=self-cleavage observed=0.74
mutation_string="U31G U69C" recorded_metric=self-cleavage observed=0.18
mutation_string="C32G A57G" recorded_metric=self-cleavage observed=0.1
mutation_string="U66A U69C" recorded_metric=self-cleavage observed=0.26
mutation_string="C23U U80G" recorded_metric=self-cleavage observed=0.26
mutation_string="G6U U51C" recorded_metric=self-cleavage observed=0.36
mutation_string="U41A U69A" recorded_metric=self-cleavage observed=0.14
mutation_string="U26A U31C" recorded_metric=self-cleavage observed=0.69
